Catalogue of MIC values
# Test system: Enterobacter cloacae 108
Quick note: give the figure in µg/mL, leave out the unit.

compound | MIC [µg/mL]
C[C@@H](O)[C@H]1C(=O)N2C(C(=O)O)=C(S[C@@H]3CN[C@H](C(=O)Nc4cccc(C(=O)NCC(=O)O)c4)C3)[C@H](C)[C@H]12 | 1
C[C@@H](O)[C@H]1C(=O)N2C(C(=O)O)=C(S[C@@H]3CN[C@H](C(=O)Nc4cccc(/C=C/C(=O)O)c4)C3)[C@H](C)[C@H]12 | 2
CO/N=C(\C(=O)N[C@@H]1C(=O)N2C(C(=O)O)=C(CSc3nc(=O)c(=O)[nH]n3C)CS[C@H]12)c1csc(N)n1 [ceftriaxone, reference compound] | 32
C[C@@H](O)[C@H]1C(=O)N2C(C(=O)O)=C(S[C@@H]3CN[C@H](C(=O)Nc4cc(/C=C/C(=O)O)ccc4O)C3)[C@H](C)[C@H]12 | 4

Note down MIC recorded for "C[C@@H](O)[C@H]1C(=O)N2C(C(=O)O)=C(S[C@@H]3CN[C@H](C(=O)Nc4cccc(OCC(=O)O)c4)C3)[C@H](C)[C@H]12"
1
